- Tgt: human NaV1.6 (hNaV1.6) (Homo sapiens)
- Construct: expressed in transfected cells; host or cells: HEK-293
- Sequence (Q9UQD0 whole entry): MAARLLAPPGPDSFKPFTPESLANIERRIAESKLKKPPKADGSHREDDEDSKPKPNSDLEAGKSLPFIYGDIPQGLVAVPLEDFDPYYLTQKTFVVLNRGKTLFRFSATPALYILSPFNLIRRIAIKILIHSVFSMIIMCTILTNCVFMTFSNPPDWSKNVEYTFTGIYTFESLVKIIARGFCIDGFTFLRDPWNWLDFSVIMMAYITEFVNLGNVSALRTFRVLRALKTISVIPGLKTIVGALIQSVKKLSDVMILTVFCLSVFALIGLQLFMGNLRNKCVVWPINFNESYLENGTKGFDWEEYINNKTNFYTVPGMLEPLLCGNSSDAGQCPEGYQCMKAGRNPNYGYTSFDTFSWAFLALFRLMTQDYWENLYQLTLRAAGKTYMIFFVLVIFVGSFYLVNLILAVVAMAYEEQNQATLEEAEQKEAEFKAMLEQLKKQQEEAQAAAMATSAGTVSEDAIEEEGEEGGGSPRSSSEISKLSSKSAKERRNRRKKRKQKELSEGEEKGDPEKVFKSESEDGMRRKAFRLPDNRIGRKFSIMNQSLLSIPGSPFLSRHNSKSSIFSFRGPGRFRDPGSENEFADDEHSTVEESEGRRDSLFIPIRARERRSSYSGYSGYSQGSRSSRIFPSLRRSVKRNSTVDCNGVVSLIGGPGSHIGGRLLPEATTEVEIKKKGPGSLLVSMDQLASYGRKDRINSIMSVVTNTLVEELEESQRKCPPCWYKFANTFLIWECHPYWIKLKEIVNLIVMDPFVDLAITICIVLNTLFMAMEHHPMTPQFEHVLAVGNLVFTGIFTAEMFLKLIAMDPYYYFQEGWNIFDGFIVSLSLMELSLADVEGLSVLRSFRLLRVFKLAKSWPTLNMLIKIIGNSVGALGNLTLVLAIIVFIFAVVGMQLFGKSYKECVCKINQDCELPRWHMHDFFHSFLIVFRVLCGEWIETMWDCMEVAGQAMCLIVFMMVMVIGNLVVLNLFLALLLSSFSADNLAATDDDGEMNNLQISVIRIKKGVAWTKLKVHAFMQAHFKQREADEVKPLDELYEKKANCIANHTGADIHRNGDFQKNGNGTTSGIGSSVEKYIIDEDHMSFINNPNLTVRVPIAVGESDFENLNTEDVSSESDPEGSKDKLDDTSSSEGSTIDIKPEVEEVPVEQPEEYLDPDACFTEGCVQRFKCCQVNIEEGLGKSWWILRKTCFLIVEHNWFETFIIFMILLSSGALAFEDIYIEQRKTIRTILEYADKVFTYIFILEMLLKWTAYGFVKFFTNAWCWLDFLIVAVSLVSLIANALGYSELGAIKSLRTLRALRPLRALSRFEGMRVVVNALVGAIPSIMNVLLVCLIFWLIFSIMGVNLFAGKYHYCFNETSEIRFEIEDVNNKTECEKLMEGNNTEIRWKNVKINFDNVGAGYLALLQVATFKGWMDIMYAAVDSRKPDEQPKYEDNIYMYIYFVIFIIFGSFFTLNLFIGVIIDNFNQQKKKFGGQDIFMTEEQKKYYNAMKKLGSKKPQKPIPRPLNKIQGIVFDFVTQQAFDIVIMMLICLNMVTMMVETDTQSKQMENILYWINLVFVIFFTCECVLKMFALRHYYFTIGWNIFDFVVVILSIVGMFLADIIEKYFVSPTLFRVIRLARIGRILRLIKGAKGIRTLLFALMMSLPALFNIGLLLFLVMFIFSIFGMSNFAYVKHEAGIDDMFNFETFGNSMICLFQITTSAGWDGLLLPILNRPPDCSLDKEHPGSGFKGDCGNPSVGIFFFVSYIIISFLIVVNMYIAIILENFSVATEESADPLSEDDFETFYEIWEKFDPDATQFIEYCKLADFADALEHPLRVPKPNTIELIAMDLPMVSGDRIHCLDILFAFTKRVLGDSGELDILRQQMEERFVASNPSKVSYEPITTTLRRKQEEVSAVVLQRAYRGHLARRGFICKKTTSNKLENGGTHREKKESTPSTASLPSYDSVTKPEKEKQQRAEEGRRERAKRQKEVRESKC
- Method Notes: Modulation of late sodium current (INaL), PatchXpress electrophysiology, HEK-293 cells expressing hNaV1.6
- Type: cell-based
- Protocol Conditions: HEK293, late current evoked by 300 nM ATX-II, read-out: NaV 1.6 Assay Data: percent inhibition of INaL at hNaV1.6
Measured Parameter: inhibition at 1 µM

Recorded results for 10 molecules are shown here.
>>> assay_result("COC(F)(F)c1nnc2ccc(-c3cnc(OC4(C(F)(F)F)CCC4)c(F)c3)cn12 [Compound 18]")
"> 70%"
>>> assay_result("C[C@@H](Oc1ncc(-c2ccc3nnc(C(F)(F)OC4CC4)n3c2)cc1F)C(F)(F)F [Compound 36]")
"> 70%"
>>> assay_result("COCc1nnc2ccc(-c3cnc(O[C@@H](C)C(F)(F)F)c(F)c3)nn12 [Compound 44]")
"30 to 70%"
>>> assay_result("COC(F)(F)c1nnc2ccc(-c3cnc(OC(C)(C)C(F)(F)F)c(F)c3)nn12 [Compound 5]")
"> 70%"
>>> assay_result("C[C@H](Oc1ncc(-c2ccc3nnc(C(F)(F)OC4CC4)n3c2)cc1F)C(F)(F)F [Compound 37]")
"> 70%"
>>> assay_result("CC(C)COC(F)(F)c1nnc2ccc(-c3cnc(O[C@H](C)C(F)(F)F)c(F)c3)nn12 [Compound 49]")
"> 70%"
>>> assay_result("COC(F)(F)c1nnc2cnc(-c3ccc(OC(C)(C)C(F)(F)F)nc3)cn12 [Compound 56]")
"> 70%"
>>> assay_result("CCOC(F)(F)c1nnc2cnc(-c3ccc(OC(C)(C)C(F)(F)F)nc3)cn12 [Compound 88]")
"> 70%"
>>> assay_result("CCOC(F)(F)c1nnc2cnc(-c3cnc(O[C@@H](C)C(F)(F)F)c(F)c3)c(C)n12 [Compound 67]")
"> 70%"
>>> assay_result("C[C@H](Oc1ncc(-c2cn3c(C(F)(F)OC4CC4)nnc3cn2)cc1F)C(F)(F)F [Compound 63]")
"> 70%"

// recorded inhibition at 1 µM for COCc1nnc2cc(C)c(-c3cnc(OC(C)(C)C(F)(F)F)c(F)c3)nn12 [Compound 69] : 30 to 70%

// recorded inhibition at 1 µM for CCOCc1nnc2cnc(-c3cnc(O[C@H](C)C(F)(F)F)c(F)c3)cn12 [Compound 52] : 30 to 70%

// recorded inhibition at 1 µM for COC(F)(F)c1nnc2cnc(-c3cnc(OC(C)(C)C(F)(F)F)c(F)c3)cn12 [Compound 15] : > 70%

// recorded inhibition at 1 µM for COC(F)(F)c1nnc2cnc(-c3cnc(O[C@H](C)C(F)(F)F)c(F)c3)c(C)n12 [Compound 60] : 30 to 70%

// recorded inhibition at 1 µM for CCOCc1nnc2cnc(-c3cnc(OC(C)(C)C(F)(F)F)c(F)c3)cn12 [Compound 79] : > 70%
